- System: Vero E6 infected with SARS-CoV-2
- assay.name: inhibition of SARS-CoV-2 cytopathic effect; higher = more antiviral protection, active = above 15
- condition.context: 8.33 nM; 48 h
observed.property: inhibition of SARS-CoV-2 cytopathic effect (%)
Give your result in % as a bare value.

compound	unit.descriptor	data.value
CCOc1ccc(NC(=S)N2CCC(C(O)(c3ccccc3)c3ccccc3)CC2)cc1	%	-1.73
Cc1ccc2c(Cl)cc(Cl)c(O)c2n1	%	-0.32
CC1(C)CCC(C)(C)c2c1cc(C(=O)Nc1cc(F)c(C(=O)O)c(F)c1)c(O)c2Cl	%	-0.71
COc1cc(C[C@H](C)[C@H](C)Cc2ccc3c(c2)OCO3)ccc1O	%	-0.62

Read the next record carefully.
Ask: Give the measured inhibition of SARS-CoV-2 cytopathic effect of Cc1ccc(OCCSc2ncccn2)c(Br)c1 .
Reply: -1.79

====

- Test system: Vero E6 infected with SARS-CoV-2
- assay.name: morphology score (similarity to uninfected cells); higher = more like uninfected cells
- condition.context: 24 h
morphology score of 0.05 or higher: Criterion met. Under 0.05: Criterion not met.

molecule	assigned.class
O=C(O)c1ccccc1-c1ccc(C(F)(F)F)cc1 [xenalipin] (10 µM)	Criterion not met

Ask: morphology score >= 0.05 for CCn1nc(C)c2c1C(c1ccccc1)=NCC(=O)N2 [ripazepam] (10 µM) ?
Reply: Criterion not met

Ask: Exam item: decide whether the reported morphology score for CN1[C@@H]2CC[C@H]1C[C@@H](OC(=O)N1Cc3ccccc3NC1=O)C2 (10 µM) is at least 0.05.
Reply: Criterion met

Ask: # check: morphology score of Cc1c(C2CCN(CCc3ccccc3)CC2)noc1-c1ccc(Cl)cc1 (10 µM) is greater than or equal to 0.05
Reply: Criterion met

====

- Tested on: Vero E6 infected with SARS-CoV-2
- assay.name: morphology score (similarity to uninfected cells); higher = more like uninfected cells
- condition.context: 24 h
Rule: morphology score under 0.1 gives false (0), otherwise true (1).

compound	tgt	assigned.class
Cc1c(C)c(NCC(=O)N(C)C2CCN(Cc3ccc(C(N)=O)cc3)CC2)c(C)c(C)c1N (10 µM)	Vero E6 infected with SARS-CoV-2	true (1)
N#CC(c1ccc(Cl)cc1)c1c(Cl)cc(-n2ncc(=O)[nH]c2=O)cc1Cl (stereo not drawn) [diclazuril] (10 µM)	Vero E6 infected with SARS-CoV-2	true (1)
O=C(NCc1ccccc1)OCCO [buramate] (10 µM)	Vero E6 infected with SARS-CoV-2	true (1)
C[C@H](N)C(=O)N[C@@]1(C(=O)O)C[C@@H](Sc2nnc[nH]2)[C@H]2[C@H](C(=O)O)[C@H]21 (10 µM)	Vero E6 infected with SARS-CoV-2	false (0)
CN1C(C(=O)Nc2ccccn2)=C(O)c2sccc2S1(=O)=O [tenoxicam] (10 µM)	Vero E6 infected with SARS-CoV-2	false (0)
CC(=O)c1ccc2c(c1)N(CCCN1CCN(CCO)CC1)c1ccccc1S2 [acetophenazine] (10 µM)	Vero E6 infected with SARS-CoV-2	true (1)

// switching to the query compound
Ask: API: above_or_equal(metric=morphology score, cutoff=0.1) for item N.N.[Cl][Pt][Cl] [cisplatin] (10 µM)
Reply: false (0)

====

Reported inhibition of SARS-CoV-2 cytopathic effect values follow for various compounds
- System: Vero E6 infected with SARS-CoV-2
- assay.name: inhibition of SARS-CoV-2 cytopathic effect; higher = more antiviral protection, active = above 15
- condition.context: 8.33 nM; 48 h
Could you give me the number in %? Just the number is fine.

Field: example entries. Status: answers known.
compound	data.value
Cc1cnc(C(=O)NCCc2ccc(S(=O)(=O)NC(=O)NC3CCCCC3)cc2)cn1 [glipizide]	-1.53
CC1=C(C(=O)OC(C)C)C(c2cccc([N+](=O)[O-])c2)C(C(=O)OC2CN(C(c3ccccc3)c3ccccc3)C2)=C(N)N1 (stereo not given) [azelnidipine]	1.14
C[C@@]1(CO)[C@H](O)CC[C@@]2(C)[C@H]1CC[C@H]1C[C@@H]3C[C@@]12CC[C@]3(O)CO [aphidicolin]	-3.68
CC(ONC(=O)c1cc(C(F)(F)F)cc(C(F)(F)F)c1)C(=O)Nc1ccc(Cl)cc1 (stereo not given)	-0.64
Fc1ccc(CN2CCC(Nc3ccc(C(F)(F)F)nn3)CC2)cc1F	2.13

Ask: Requested read-out: inhibition of SARS-CoV-2 cytopathic effect. Entry: CN(C)C/C=C/C(=O)Nc1ccc(C(=O)Nc2cccc(Nc3ncc(Cl)c(-c4c[nH]c5ccccc45)n3)c2)cc1
Reply: -1.41

Ask: What measured inhibition of SARS-CoV-2 cytopathic effect goes with CN(C(=O)c1ccc(F)cc1C(F)(F)F)C1CCN(c2nnc(-c3ccnn3C)c3ccccc23)CC1 [taladegib] ?
Reply: -6.09

Ask: What value of inhibition of SARS-CoV-2 cytopathic effect has been recorded for this entry: CCCCCCCCCCCCCCCCCCCCCC(=O)Nc1ccn([C@@H]2O[C@H](CO)[C@@H](O)[C@@H]2O)c(=O)n1 [enocitabine]
Reply: -4.05

Ask: Fill in: inhibition of SARS-CoV-2 cytopathic effect of CC(=O)NC1CCSC1=O (stereo not given) [citiolone] is ___
Reply: -0.41

Ask: Looking for the measured inhibition of SARS-CoV-2 cytopathic effect of CCC(=O)O[C@H]1[C@H](O[C@@H]2[C@@H](C)[C@H](O[C@H]3C[C@@](C)(OC)[C@@H](O)[C@H](C)O3)[C@@H](C)C(=O)O[C@H](CC)[C@@](C)(O)[C@H](O)[C@@H](C)C(=O)[C@H](C)C[C@@]2(C)O)O[C@H](C)C[C@@H]1N(C)C [erythromycin-estolate] , can you help?
Reply: 1.07

Ask: Which inhibition of SARS-CoV-2 cytopathic effect is reported for this compound? CC(=O)O[C@]1(C(C)=O)CC[C@H]2[C@@H]3C[C@H](C)C4=CC(=O)CC[C@]4(C)[C@H]3CC[C@@]21C [medroxyprogesterone-acetate]
Reply: 0.71

Ask: Fill in the blank: the reported inhibition of SARS-CoV-2 cytopathic effect of C=CC(=O)Nc1ccc2ncnc(Nc3cccc(Br)c3)c2c1 is ____.
Reply: -1.31

Ask: // inhibition of SARS-CoV-2 cytopathic effect lookup, key: CC(C)N1CCN(c2ccc(OCC3COC(Cn4cncn4)(c4ccc(Cl)cc4Cl)O3)cc2)CC1 (stereo not given) [terconazole]
Reply: 0.07

Ask: inhibition of SARS-CoV-2 cytopathic effect lookup needed for COc1nc(C)cnc1NS(=O)(=O)c1cccnc1-c1ccc(-c2nnco2)cc1 [zibotentan] , thanks.
Reply: -0.17

Ask: I have this compound here, CC(C)(C)CC(C)(C)c1ccc(OCCOCC[N+](C)(C)Cc2ccccc2)cc1 [benzethonium] , and I need its recorded inhibition of SARS-CoV-2 cytopathic effect.
Reply: -10.6

Ask: Return reported inhibition of SARS-CoV-2 cytopathic effect; argument: Cc1ccc(/C=C2\CNC/C(=C\c3ccc(C)cc3)C2=O)cc1
Reply: -1.97

Ask: So what's the measured inhibition of SARS-CoV-2 cytopathic effect for this one? O=C(O)[C@@H](S)[C@@H](S)C(=O)O [dimercaptosuccinic-acid]
Reply: -1.78

Ask: Name the reported inhibition of SARS-CoV-2 cytopathic effect value associated with the compound CCOc1ccc(C(=O)OCCN(CC)CC)cc1 [parethoxycaine]
Reply: -3.01

Ask: What value of inhibition of SARS-CoV-2 cytopathic effect has been reported for the following compound? COc1cc(/C=C/C(N)=O)cc(OC)c1OC [cintriamide]
Reply: 1.17

Ask: Would you mind telling me what inhibition of SARS-CoV-2 cytopathic effect value was observed for C=C1C(=O)O[C@@H]2[C@H]3O[C@]3(C)CC/C=C(\C)CC[C@@H]12 [parthenolide-(alternate-stereo)] ?
Reply: -1.19
